B1: TPR t1 (parent)
chain: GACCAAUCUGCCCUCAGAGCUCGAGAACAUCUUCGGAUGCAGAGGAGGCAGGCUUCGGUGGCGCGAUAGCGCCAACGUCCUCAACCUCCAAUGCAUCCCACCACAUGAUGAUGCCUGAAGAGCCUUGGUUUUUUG

- Variants of: B1
- testName: polymerase ribozyme fitness, log enrichment relative to wild type (log ratio); higher = more active; in vitro selection for triplet polymerase activity
Decide using polymerase ribozyme fitness (log ratio): a value greater than or equal to -2 is T, a smaller one is F.

mutantcode="C11A C124U" categorylabel=T
mutantcode="A29G U116G" categorylabel=F
mutantcode="C3U G45A A105U" categorylabel=F
mutantcode="U32C G48A G52U A66U C114A" categorylabel=F
mutantcode="G45A C53A U81C" categorylabel=T
mutantcode="U78C A83U" categorylabel=T
mutantcode="A6G C31A G42U C53U A95U C101U C114U U126A" categorylabel=F
mutantcode="C3U C12A G61C A84C U130C U133G" categorylabel=F
mutantcode="A29U C53G U81A A121U U132A" categorylabel=T
mutantcode="C88U C97U" categorylabel=T
mutantcode="C79A G127U" categorylabel=F
